SYSTEM: C-C chemokine receptor type 3 (Homo sapiens, UniProt P51677)
Sequence (P51677 whole entry): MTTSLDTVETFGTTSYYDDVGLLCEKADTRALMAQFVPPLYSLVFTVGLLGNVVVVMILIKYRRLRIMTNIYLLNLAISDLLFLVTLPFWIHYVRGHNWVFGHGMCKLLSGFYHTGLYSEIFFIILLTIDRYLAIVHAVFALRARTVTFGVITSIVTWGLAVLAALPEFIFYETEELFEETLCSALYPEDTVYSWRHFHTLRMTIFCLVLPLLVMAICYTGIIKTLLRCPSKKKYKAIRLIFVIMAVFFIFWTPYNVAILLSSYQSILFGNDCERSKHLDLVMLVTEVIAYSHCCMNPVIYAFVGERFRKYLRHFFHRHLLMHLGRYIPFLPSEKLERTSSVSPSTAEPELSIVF
PROPERTY LABEL: Ki (nM)

>>> experimental_value("Fc1ccc(SCCCN2CCC(n3c(CC(F)(F)F)nc4cc(F)ccc43)CC2)cc1")
9
